system_under_test: T1, N-terminal domain of EI from Streptomyces coelicolor (EIN^sc) (Streptomyces coelicolor)
T1 chain: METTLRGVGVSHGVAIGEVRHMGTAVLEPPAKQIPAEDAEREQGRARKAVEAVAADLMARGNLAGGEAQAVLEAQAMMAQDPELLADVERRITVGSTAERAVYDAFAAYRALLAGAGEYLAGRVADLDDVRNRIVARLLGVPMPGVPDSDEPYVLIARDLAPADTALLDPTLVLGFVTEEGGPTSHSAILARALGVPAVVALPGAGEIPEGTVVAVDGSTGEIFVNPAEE
assay_remarks: other fluorescence titration; peptide 0–30 µM added to 3 µM Rsd^ec or EIN^sc; 50 mM Tris, pH 7.0, 25 °C; samples left overnight at 5 °C; blank of peptide subtracted
details: both partners purified
assay_endpoint: Kd (µM)
Provide only the numeric value, understood in µM.

Some binders with recorded Kd:
Ac-GWAEGLHARAASAAARAATATG-NH2 (HPr of Streptomyces coelicolor, residues 9-30, with P18A, I21A, F22A and V23A; also called quadruple-mutant; source: synthetic peptide, bought: NZYTech (purity >95%)) [HPr^9–30 P18A/I21A/F22A/V23A peptide]; 11
Ac-GWAEGLHARPASIFVRAATATG-NH2 (HPr (histidine phosphocarrier) of Streptomyces coelicolor, HPr^sc, residues 9-30; first letter printed as G^9; The limit residues are printed as Gly9-Ala30 (abstract) and Ala9-Gly30 (introduction); source: synthetic peptide, bought: NZYTech (purity >95%)) [HPr^9–30 wild-type peptide (residues 9-30 of HPr from Streptomyces coelicolor)]; 10

Query block: May I ask what Kd has been recorded for Ac-GWAEGLHARPASIFARAATATG-NH2 (HPr of Streptomyces coelicolor, residues 9-30, with V23A; source: synthetic peptide, bought: NZYTech (purity >95%)) [HPr^9–30 V23A peptide] ?
Result block: 9
